Assay: in vivo
Set-up: species or system rat
Details: rat, lung, iv; 24 h; read-out: Lung uptake
Property: tissue uptake at 24 h (%ID/g)
Write down the numeric answer in %ID/g and omit the unit.

Query (molecule): `CCN(CC)CCOc1ccc(/C(=C(/CCC[131I])c2ccccc2)c2ccccc2)cc1` ; field requested: tissue uptake at 24 h
0.512

====

Assay: in vivo
Design: species or system rat
Settings: rat, uterus, iv; 1 h; read-out: Uterus uptake
Property: tissue uptake at 1 h (%ID/g)
Write down the numeric answer in %ID/g and omit the unit.

Query (compound): `CCN(CC)CCOc1ccc(/C(=C(/CCC[131I])c2ccccc2)c2ccccc2)cc1` ; field requested: tissue uptake at 1 h
0.414

====

Experiment: in vivo
Parameters: species or system rat
Conditions: rat, uterus, iv; 4 h; read-out: Uterus uptake
Property: tissue uptake at 4 h (%ID/g)
Write down the numeric answer in %ID/g and omit the unit.

Query (molecule): CCN(CC)CCOc1ccc(/C(=C(/CCC[18F])c2ccccc2)c2ccccc2)cc1 [[^18 F]FTX] ; field requested: tissue uptake at 4 h
0.364

====

Assay: Biodistribution in mammary tumor-bearing rats primed with estradiol
Type: in vivo, rat
Settings: rat, blood, iv, 10 uCi/rat, 1 h, read-out: Blood uptake
Property: tissue uptake at 1 h (%ID/g)
Write down the numeric answer in %ID/g and omit the unit.

Query (molecule): CCN(CC)CCOc1ccc(/C(=C(/CCC[131I])c2ccccc2)c2ccccc2)cc1 [^131 I-IODOTAMOXIFEN] ; field requested: tissue uptake at 1 h
0.155
